B1: tRNA (parent)
chain: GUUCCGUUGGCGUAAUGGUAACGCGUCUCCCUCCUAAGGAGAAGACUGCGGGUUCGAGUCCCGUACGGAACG

Variants of: B1
Assay: yeast fitness relative to wild type (ratio to wild type); higher = fitter; tRNA-Arg(CCU), competitive growth, 37 C, YPD
Fewer inactive variants are shown than the library holds.
ASSAY METRIC: yeast fitness
Enter a number only.

Illustrative cases are given below, each with its answer.
- VARIANT NAME: "A36U A40U A45G G58C"
  ASSAY METRIC: "yeast fitness"
  OBS VALUE: 0.565
- VARIANT NAME: "C22A C62A"
  ASSAY METRIC: "yeast fitness"
  OBS VALUE: 0.785
- VARIANT NAME: "U13A G67C"
  ASSAY METRIC: "yeast fitness"
  OBS VALUE: 0.945

Request: // lookup yeast fitness for C22G A37U A43U
Response: 0.502

Request: Then U7G C60U G63C ?
Response: 0.585

Request: Then C29A A65U ?
Response: 0.626

Request: Then A42C U47G ?
Response: 0.607

Request: Then C34U G38A G56A ?
Response: 0.611

Request: Then C4U G6C A21C C30G C46G ?
Response: 0.524

Request: Then U26C A37U ?
Response: 0.702

Request: Then U13C A20G C31U ?
Response: 0.777

Request: Then A36U C49G U54C ?
Response: 0.66

Request: Then A37G U53C ?
Response: 0.553

Request: Then G10A U32C ?
Response: 0.786

Request: Then U16A C34A U64C ?
Response: 0.513

Request: Then G12C C27U G58C A69C ?
Response: 0.657

Request: Then G10C U47C G67C ?
Response: 0.536

Request: Then A20G G38A ?
Response: 0.912

Request: Then C24U A36C G44C C62A ?
Response: 0.752

Request: Then G12C C55U ?
Response: 0.734
